Where do these numbers come from? They come from PubChem BioAssay (NCI).

Measured TGI by item
System: 786-0 renal
Assay: NCI tumour cell line growth inhibition, 384-well format

Consider the reported TGI for these compounds:
SMILES INPUT: O=C(Nc1ccccc1/C=C/c1n[nH]c2ccccc12)c1ccccc1
OBSERVED PROPERTY: TGI
ASSAY VALUE: 3.31 µM

SMILES INPUT: C=CC(=O)N1CCN([C@@H](CC2CC2)c2ccc([C@H](C)Nc3ncc4c(n3)N(CC)C(=O)OC4)cc2)CC1
OBSERVED PROPERTY: TGI
ASSAY VALUE: 25.7 µM

SMILES INPUT: CC(C)Cn1cnc2c(N)nc3ccccc3c21
OBSERVED PROPERTY: TGI
ASSAY VALUE: > 100 µM

For the next question, use this compound.
query: Fill in the blank: the reported TGI of CN(C)CCN1C(=O)c2cccc3cc(N)cc(c23)C1=O is ____.
result: 13.5 µM
